Assay: Metabolic stability in mouse liver microsomes assessed as half life at 2 uM and mesured upto 60 mins in presence of NADPH by UHPLC-MS analysis
Type: ADME, Microsome
Details: liver microsomes
attribute_measured: half-life at 2 µM
Put your answer as a value accompanied by its unit after it.

Input: Which measured half-life at 2 µM value corresponds to `COc1cnc(Nc2cccc(S(N)(=O)=O)c2)nc1N1CCN(c2ccccn2)CC1` ?
Output: 9 min

---

Molecular target: Activin receptor type-2A (Homo sapiens)
Sequence (P27037 whole entry): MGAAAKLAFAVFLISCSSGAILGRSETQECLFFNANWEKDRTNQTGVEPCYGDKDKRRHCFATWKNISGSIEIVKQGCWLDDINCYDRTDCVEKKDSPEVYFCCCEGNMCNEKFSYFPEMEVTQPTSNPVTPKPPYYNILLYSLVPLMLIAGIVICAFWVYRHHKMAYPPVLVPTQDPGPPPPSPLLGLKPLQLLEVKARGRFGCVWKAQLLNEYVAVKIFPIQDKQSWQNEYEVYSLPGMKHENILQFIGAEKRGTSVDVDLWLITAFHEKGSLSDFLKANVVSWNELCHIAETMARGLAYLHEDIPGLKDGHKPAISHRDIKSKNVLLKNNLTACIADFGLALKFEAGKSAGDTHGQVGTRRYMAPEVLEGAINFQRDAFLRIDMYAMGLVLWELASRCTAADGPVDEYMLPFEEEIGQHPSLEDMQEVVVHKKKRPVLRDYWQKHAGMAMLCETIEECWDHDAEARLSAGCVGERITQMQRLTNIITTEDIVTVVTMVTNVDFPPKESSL
attribute_measured: IC50
Put your answer as a value accompanied by its unit after it.

Input: GET /values?readout=IC50&system=Activin receptor type-2A (Homo sapiens)&item= `c1ccc2c(-c3cnn4cc(-c5ccc(N6CCNCC6)cc5)cnc34)ccnc2c1`
Output: 9.3 nM
